Target: T1, human CLL1 ECD (65-265) (human, UniProt Q5QGZ9 65-265)
T1 construct: Expressed in 293-F cells and purified by IMAC; also called huCLL1; recombinant human CLL1 protein
T1 sequence: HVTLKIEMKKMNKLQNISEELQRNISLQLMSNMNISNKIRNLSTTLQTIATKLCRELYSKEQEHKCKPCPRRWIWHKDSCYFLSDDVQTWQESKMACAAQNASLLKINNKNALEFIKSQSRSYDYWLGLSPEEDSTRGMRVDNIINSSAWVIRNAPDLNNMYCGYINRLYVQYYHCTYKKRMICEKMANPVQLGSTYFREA
Assay: SPR (Biacore T200), sdAb supernatant, recombinant human CLL1
Below, each entry is listed alongside its reported Kd.
Give a bare numeral; the unit nM is implied.

Recorded results for 2 binders are shown here.
• AS83180 sdAb (VHH, Camel sdAb tested as E. coli culture supernatant; not shown: C-terminal His-tag encoded by the soluble expression vector) VHH: QVQLVESGGGSVQAGGSLRLSCVVSAATNCRYIAWYRQAPGKAREFVSTLGSDGNTNYADSVKGRFTISQGNIKNMAYLEMNSLKPEDTGMYYCGTRCQIGDDWRSSDWAQGTQVTVSS = 3
• AS82718 sdAb (VHH, Camel sdAb tested as E. coli culture supernatant; not shown: C-terminal His-tag encoded by the soluble expression vector) VHH: QVQLAESGGGLVQTGGSLRLSCTASGLNFGLYAMGWFRQAPGKEREGVSCINGGGGITVYSDFVKSRFTISRDNAKNTLYLQMNSLKPDDTATYYCAADRSPFGSCSSDWSRSSDWSRMAEKFGYWGQGTQVTVSS = 24

From here, focus on the item given below.
[Q] I have this binder here, AS82480 sdAb (VHH, Camel sdAb tested as E. coli culture supernatant; not shown: C-terminal His-tag encoded by the soluble expression vector) VHH: EVQLVESGGGSVQAGGSLRLSCAASGVTYSSACMGWFRQAPGKGREVVAVLYAGGSTTHYASSVKERFTISQDNAKNTVYLQMNSLKPEDTAVYYCAAALGDRSSCEWRYWGQGTQVTVSS , and I need its recorded Kd.
[A] 1.5
